# Procedure Details: Phase I pharmacokinetics in plasma and CSF, multiple dosing over 14 days
# Assay type: in vivo, human
# Settings: male, human, CSF, po
Quantity Kind: Tmax

(Q) Give a short answer stating reported Tmax for C[C@@H](Oc1ccc(S(C)(=O)=O)cc1C(=O)N1C[C@@H]2C[C@]2(c2cc(C(F)(F)F)on2)C1)C(F)(F)F [BI 425809] .
(A) 5 to 8 h

* * *

# Procedure Details: Phase I pharmacokinetics in plasma and CSF, multiple dosing over 14 days
# Assay type: in vivo, human
# Settings: plasma; 10 mg oral, after first dose; geometric mean (% gCV); n = 6
Quantity Kind: AUC0–14 (µM·h)
Note: unit µM·h is implicit; provide only the numeric part.

(Q) Give a short answer stating reported AUC0–14 for C[C@@H](Oc1ccc(S(C)(=O)=O)cc1C(=O)N1C[C@@H]2C[C@]2(c2cc(C(F)(F)F)on2)C1)C(F)(F)F .
(A) 0.829

* * *

# Procedure Details: Phase I pharmacokinetics in plasma and CSF, multiple dosing over 14 days
# Assay type: in vivo, human
# Settings: male, human, plasma, po, 5 mg
Quantity Kind: Tmax (h)
Note: unit h is implicit; provide only the numeric part.

(Q) Give a short answer stating reported Tmax for C[C@@H](Oc1ccc(S(C)(=O)=O)cc1C(=O)N1C[C@@H]2C[C@]2(c2cc(C(F)(F)F)on2)C1)C(F)(F)F [BI 425809] .
(A) 5
